Assay: Mouse oral PK study
Type: in vivo, male C57BI/6 mice
Settings: male, C57BI/6, 10 mg/kg, PO, single dose, plasma
Procedure: Standard oral PK studies were conducted using male C57BI/6 mice obtained from BioDuro Shanghai. […] Plasma concentrations of compound 1 reported at each of the 9 time points (5 min, 15 min, 30 min, 1 h, 2 h, 4 h, 6 h, 8 h and 24 h post dosing) are the average values from 3 test animals.
reported endpoint: Cmax (nM)
Express your answer in nM, writing the number without its unit.

Tell me the measured Cmax of COc1cc(C2CCN(CC3CN(c4ccc5c(c4)C(=O)N(C4CCC(=O)NC4=O)C5=O)C3)CC2)c(C)cc1Nc1ncc(Cl)c(Nc2ccccc2S(=O)(=O)C(C)C)n1 (stereo not shown) , please.
658
